# subject of test: T1, hTSLP1-m-mFc (human (homo sapiens)); mouse (mus …, limits assumed)
# T1 construct: also called 人TSLP
# T1 chain: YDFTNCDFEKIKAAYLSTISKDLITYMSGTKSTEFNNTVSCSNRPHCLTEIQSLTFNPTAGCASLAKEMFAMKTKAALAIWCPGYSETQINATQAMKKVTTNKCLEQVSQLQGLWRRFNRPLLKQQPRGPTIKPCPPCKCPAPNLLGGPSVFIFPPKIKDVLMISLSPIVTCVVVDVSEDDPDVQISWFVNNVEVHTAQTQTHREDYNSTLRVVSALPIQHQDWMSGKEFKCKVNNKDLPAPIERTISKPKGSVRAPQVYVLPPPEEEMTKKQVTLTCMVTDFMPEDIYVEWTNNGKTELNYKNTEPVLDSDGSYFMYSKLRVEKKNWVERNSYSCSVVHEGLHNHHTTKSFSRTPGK
# protocol: ELISA on coated hTSLP1-m-mFc (1 μg/mL), HRP anti-human IgG

{"binder": "H1A10+L3E8-M1 (antibody, human IgG4, V domains shown, also called L3E8人源化突变体; 人源化抗TSLP单克隆抗体) VH: QVQLVQSGAEVKKPGASVKVSCKASGYAFSNYWMNWVRQAPGQGLEWMGQIFPGDSDTDYDQKFQGRVTMTRDTSTSTVYMELSSLRSEDTAVYYCARAGYYRGYYAMDYWGQGTTVTVSS VL: EIVMTQSPATLSVSPGERATLSCSVSSSISSSNLHWYQQKPGQAPRPWIYGTSNLASGIPARFSGSGSGTEFTLTISSLQSEDFAVYYCQQWSSYPLTFGQGTKLEIK", "binding result": "binds"}

Sourced from patent CN111171150A
